Measured values drawn from patent US10150780B2 for this set.

Assign IC50 to each entry below.
- Test system: HIV-1 (NL4-3 strain)
- methodSummary: Assay for Inhibition of HIV Replication (VIKING), infected MT4-GFP cells
- Format: cell-based
- protocolConditions: MT4-GFP cells infected with HIV-1 NL4-3; RPMI + 0% normal human serum; infected cells at 48 h / 24 h; read-out: VIKING IP50 (nM) with 0% NHS
Give bare numbers, in nM.

CN1CCCN2C(=O)c3c(O)c(=O)c(C(=O)NCc4cccc(Cl)c4F)cn3C3(CC3)C12 (single isomer, unassigned) [Compound 15]
0.6
O=C(NCc1ccc(F)cc1F)c1cn2c(c(O)c1=O)C(=O)N1CCCOC1C21CC1 (single isomer, unassigned) [Compound 4]
0.5
COC1N(N(C)C)C(=O)c2c(O)c(=O)c(C(=O)NCc3ccc(F)cc3F)cn2C12CC2 (single isomer, unassigned) [Compound 2]
1.7
O=C(NCc1cccc(Cl)c1F)c1cn2c(c(O)c1=O)C(=O)N1CCCCOC1C21CC1 (single isomer, unassigned) [Compound 12]
0.5

Parameter requested: IC50. Apply to each item below.
1. O=C(NCc1cccc(Cl)c1F)c1cn2c(c(O)c1=O)C(=O)N1CCCCOC1C21CC1 (single isomer, unassigned) [Compound 13]
2. O=C(NCc1cccc(Cl)c1F)c1cn2c(c(O)c1=O)C(=O)N1CCOC1C21CC1 (single isomer, unassigned) [Compound 11]
3. O=C(NCc1cccc(Cl)c1F)c1cn2c(c(O)c1=O)C(=O)N1CCCOC1C21CC1 (single isomer, unassigned) [Compound 6]

Resp:
1: 1.3; 2: 0.4; 3: 0.6
